Entry source: paper PMC4077236

Experiment: in vivo
Settings: human, plasma, po, 50 mg
Readout Name: Cmax

Qu. Look up and state reported Cmax for `c1ccc([C@H]2CN3CCSC3=N2)cc1`
Ans. ~1500 nM

---

Molecular target: human SERT (Homo sapiens, UniProt P31645)
Sequence (P31645 whole entry): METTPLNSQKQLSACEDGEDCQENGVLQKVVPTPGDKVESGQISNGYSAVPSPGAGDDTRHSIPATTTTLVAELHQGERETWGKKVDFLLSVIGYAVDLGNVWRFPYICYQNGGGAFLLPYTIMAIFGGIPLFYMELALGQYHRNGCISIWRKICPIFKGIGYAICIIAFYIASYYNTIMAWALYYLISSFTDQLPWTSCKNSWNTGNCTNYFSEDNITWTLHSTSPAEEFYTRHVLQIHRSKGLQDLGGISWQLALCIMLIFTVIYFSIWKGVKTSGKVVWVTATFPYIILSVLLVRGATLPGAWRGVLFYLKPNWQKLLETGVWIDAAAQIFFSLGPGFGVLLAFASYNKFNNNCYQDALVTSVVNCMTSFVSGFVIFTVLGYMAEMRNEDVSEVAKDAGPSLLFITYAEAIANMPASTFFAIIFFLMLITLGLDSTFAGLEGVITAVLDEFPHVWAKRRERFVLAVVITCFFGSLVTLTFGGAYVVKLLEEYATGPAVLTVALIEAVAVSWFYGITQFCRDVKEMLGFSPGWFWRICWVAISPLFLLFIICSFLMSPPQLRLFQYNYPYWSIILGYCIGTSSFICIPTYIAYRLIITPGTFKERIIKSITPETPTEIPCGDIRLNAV
Assay: cell-based
Settings: IC50 uptake inhibition SERT in the absence of cocaine
Readout Name: pIC50
In textbook form, pIC50 equals minus log to base ten of the concentration in mol/L.

Qu. Look up and state reported pIC50 for NC1=NCC(c2ccccc2)O1 (stereo not shown)
Ans. 4.58

---

Target: human DAT (Homo sapiens, UniProt Q01959)
Sequence (Q01959 whole entry): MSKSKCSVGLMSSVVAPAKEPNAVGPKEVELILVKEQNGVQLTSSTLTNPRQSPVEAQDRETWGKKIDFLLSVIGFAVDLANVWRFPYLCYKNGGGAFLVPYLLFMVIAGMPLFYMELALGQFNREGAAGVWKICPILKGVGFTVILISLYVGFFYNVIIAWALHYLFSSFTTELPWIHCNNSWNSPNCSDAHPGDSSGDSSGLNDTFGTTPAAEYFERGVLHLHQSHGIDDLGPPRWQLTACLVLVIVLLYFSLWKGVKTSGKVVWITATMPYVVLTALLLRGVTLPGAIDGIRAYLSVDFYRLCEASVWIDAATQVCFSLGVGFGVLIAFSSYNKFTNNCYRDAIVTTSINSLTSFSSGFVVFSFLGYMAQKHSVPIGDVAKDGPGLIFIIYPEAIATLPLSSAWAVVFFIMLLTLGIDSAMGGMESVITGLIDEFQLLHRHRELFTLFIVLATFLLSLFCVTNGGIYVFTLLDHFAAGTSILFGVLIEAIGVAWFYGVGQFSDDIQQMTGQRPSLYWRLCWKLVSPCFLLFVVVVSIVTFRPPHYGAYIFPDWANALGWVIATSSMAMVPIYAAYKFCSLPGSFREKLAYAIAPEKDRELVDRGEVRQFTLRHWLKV
Assay: cell-based
Conditions: IC50 uptake inhibition DAT, HEK293 stably expressing human DAT; substrate [3H]dopamine 0.1 μM; 5 min preincubation
Readout Name: pIC50
In textbook form, pIC50 equals minus log to base ten of the concentration in mol/L.

Qu. Look up and state reported pIC50 for `c1ccc([C@H]2CN3CCSC3=N2)cc1`
Ans. 3.68
